Each record here notes measured 3' UTR reporter interaction score.
Test system: NOTCH1
protocol.details: 3' UTR reporter interaction score (median-centred robust z-score of log2 firefly/Renilla activity); higher = less repression of the 3' UTR reporter
condition.label: HEK293T; 48 h
No unit in the answer, please; the number alone is enough.

UGGAGAGAAAGGCAGUUC; -0.015

# next sequence below
## Input Please give the measured 3' UTR reporter interaction score for this sequence: `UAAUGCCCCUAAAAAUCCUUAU`
## Output -0.347

* * *

The entries below are paired with their reported 3' UTR reporter interaction score.
System: MYC
protocol.details: 3' UTR reporter interaction score (median-centred robust z-score of log2 firefly/Renilla activity); higher = less repression of the 3' UTR reporter
condition.label: HEK293T; 48 h
Kindly provide the number alone.

GACACGGGCGACAGCUGCGGCCC; -0.271
UGCCUGGGUCUCUGGCCUGCGCGU; 0.101

## Input Reported 3' UTR reporter interaction score, sequence `AACAUUCAACCUGUCGGUGAGU` : ____
## Output -0.157

## Input So what's the measured 3' UTR reporter interaction score for this one? `ACUUCACCUGGUCCACUAGCCGU`
## Output -0.039

## Input Can you share its 3' UTR reporter interaction score? I mean this sequence: `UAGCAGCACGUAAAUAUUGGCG`
## Output 0.946

## Input Reported 3' UTR reporter interaction score, sequence `AGUGGUUUUACCCUAUGGUAG` : ____
## Output 0.603

## Input I'd like to know its 3' UTR reporter interaction score. The sequence in question is `UCUCUGGAGGGAAGCACUUUCUG`
## Output 0.317
